The reported numbers originate from PubChem BioAssay (EPA / NIEHS).

# ASSAY_TEXT: CCTE_Simmons_MITO_basal_resp_rate: CCTE's HepG2 Seahorse XF Respirometric Screening Assay at Basal Respiratory State, Simmons Lab (AID 2284001)
# CONDITION_INFO: actives raise or lower the signal
The source made the active and inactive calls. The calls were made as follows: active = hit-call score of the fitted dose curve at least 0.9, where 1 is the maximum; inactive = score below 0.9.
PROPERTY_NAME: AC50

>>> experimental_value("Cc1cc(F)ccc1-c1cc(N2CC[C@@H](O)[C@H]2CO)ncc1N(C)C(=O)C(C)(C)c1cc(C(F)(F)F)cc(C(F)(F)F)c1")
"40.8 µM (active)"
>>> experimental_value("CN1C(=O)N(c2ccccc2Br)Cc2cnc(Nc3ccc4c(c3)OCC(CO)O4)nc21 (stereo not drawn)")
"35.1 µM (active)"
>>> experimental_value("CCCCCCCCOC(=O)c1cc(O)c(O)c(O)c1")
"13.6 µM (active)"
>>> experimental_value("O=C1CCC(C2CCCCC2)CC1")
"inactive"
>>> experimental_value("NCc1cccc(C2CCN(C(=O)c3ccc(C#Cc4ccccc4F)o3)CC2)c1")
"37.2 µM (active)"

Each compound below has a recorded value; state its AC50.
1. CC1(C)NC(=O)N(c2ccc([N+](=O)[O-])c(C(F)(F)F)c2)C1=O
2. CN(C)c1ccc(C(=C2C=CC(=[N+](C)C)C=C2)c2ccc(N(C)C)cc2)cc1
3. O=C(O)Cc1cc(I)c(Oc2ccc(O)c(I)c2)c(I)c1
4. CC(=O)N1CCN(c2ccc(OC[C@H]3CO[C@](Cn4ccnc4)(c4ccc(Cl)cc4Cl)O3)cc2)CC1
5. CN(C)C(=O)C1(N2CCCCC2)CCN(CC[C@@]2(c3ccc(Cl)c(Cl)c3)CN(C(=O)c3ccccc3)CCO2)CC1
6. CCCCCCCCCC(=O)O
7. OC12N=C(c3ccccc3)SC1Cc1cc(Cl)ccc12 (stereo not drawn)
8. O=C1c2ccccc2C(=O)N1CCc1noc(-c2ccc(CN3CCCCCC3)s2)n1

Out:
1. 37.2 µM (active)
2. 50 µM (active)
3. 27 µM (active)
4. 8.55 µM (active)
5. inactive
6. 23.2 µM (active)
7. inactive
8. 57.5 µM (active)

====

# Read-out: Human Leukocyte Antigen - DR isotype (HLADR), HLA-DRA (gene 3122)
# ASSAY_TEXT: BSK_3C_HLADR: BioMAP Diversity Plus: 3C Assay for Human Leukocyte Antigen - DR isotype (HLADR) Biomarker Activity (AID 2283019)
# CONDITION_INFO: primary human endothelial cells (HUVEC); actives raise or lower the signal
Calls of active or inactive are those of the source. Rule for the calls: active = hit-call score of the fitted dose curve at least 0.9, where 1 is the maximum; inactive = score below 0.9.
Respond using exactly one of the listed classes: 1 = active, 0 = inactive

// below: answered molecules
>>> class_name("Cc1ncc(CO)c(CO)c1O")
0
>>> class_name("CCCCCCCCOc1ccc(C(=O)c2ccccc2)c(O)c1")
1
>>> class_name("Cc1oc2c(NC(=O)c3c(Cl)cccc3Cl)cccc2c1C(C)(C)O")
1
>>> class_name("Cc1ccc(C(C)C)cc1")
0
>>> class_name("Cc1c2ccccc2c(C)c2c1ccc1ccccc12")
1

In: Please indicate how the test categorized "CC(C)(O)c1ccc(CNC(=O)c2cccnc2Oc2ccc3nonc3c2)cc1" .
Out: 0

In: For "COc1ccc2cc(S(=O)(=O)N[C@H](CC(=O)N[C@H](Cc3ccc(CN4[C@H](C)CCC[C@@H]4C)cc3)C(=O)N(C)C(C)C)c3ccc4c(c3)OCO4)ccc2c1" then?
Out: 1
